src = patent US20080119515A1

# Assayed System: ZAP-70 (Homo sapiens, UniProt P43403)
# Sequence (P43403 whole entry): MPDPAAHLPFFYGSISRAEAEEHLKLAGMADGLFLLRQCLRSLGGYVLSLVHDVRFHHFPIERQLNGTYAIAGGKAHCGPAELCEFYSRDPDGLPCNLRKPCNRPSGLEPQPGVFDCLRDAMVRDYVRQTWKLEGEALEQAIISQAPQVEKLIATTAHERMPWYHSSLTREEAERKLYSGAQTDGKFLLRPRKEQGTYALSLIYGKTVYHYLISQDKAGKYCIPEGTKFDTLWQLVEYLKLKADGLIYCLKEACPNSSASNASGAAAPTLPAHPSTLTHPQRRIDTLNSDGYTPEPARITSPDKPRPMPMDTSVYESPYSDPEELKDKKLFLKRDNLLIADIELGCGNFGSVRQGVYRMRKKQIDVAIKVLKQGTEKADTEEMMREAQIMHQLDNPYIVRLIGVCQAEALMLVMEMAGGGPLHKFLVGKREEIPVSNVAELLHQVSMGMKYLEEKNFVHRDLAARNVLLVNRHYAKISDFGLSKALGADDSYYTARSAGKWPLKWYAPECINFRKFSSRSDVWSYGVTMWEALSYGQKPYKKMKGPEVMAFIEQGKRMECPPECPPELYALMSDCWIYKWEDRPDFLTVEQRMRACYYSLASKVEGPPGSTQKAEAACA
# Assay Info: DELFIA assay (ZAP-70 kinase, phosphorylation of biotinylated poly(glu,tyr))
# Type: biochemical
# Experimental Context: ZAP-70 DELFIA, class symbols; read-out: Activity (IC50 in vitro)
Entries and their IC50

Guide cases for IC50, answers given:
N#Cc1ncccc1-c1ccc2nc(NCc3ccc(C(F)(F)F)cc3)cc(C(=O)N3CCC[C@H]3CN3CCCC3)c2c1 :: > 10000 nM
O=C(c1cc(NCc2ccc(C(F)(F)F)cc2)nc2ccc(-c3ccc(OC(F)(F)F)cc3)cc12)N1CCC[C@H]1CN1CCCC1 :: 1000 to 10000 nM
FC(F)(F)c1ccc(CNc2cc(CN3CCC[C@H]3CN3CCCC3)c3cc(-c4ccc5c(c4)OCO5)ccc3n2)cc1 :: 1000 to 10000 nM

Input: Lab request: please report IC50 under test system ZAP-70 (Homo sapiens, UniProt P43403) for O=C(c1cc(NCc2ccc(C(F)(F)F)cc2)nc2ccc(C#Cc3ccccc3)cc12)N1CCC[C@H]1CN1CCCC1
Output: < 1000 nM

Input: Try this compound too: O=C(c1cc(N2CCC(O)CC2)nc2ccc(-c3ccc4c(c3)OCO4)cc12)N1CCC[C@H]1CN1CCCC1
Output: 1000 to 10000 nM

Input: Try this compound too: O=C(c1cc(NCc2ccc(C(F)(F)F)cc2)nc2ccc(-c3ccc4c(c3)OCCO4)cc12)N1CCC[C@H]1CN1CCCC1
Output: < 1000 nM

Input: Try this compound too: O=C(c1cc(CCc2ccccc2F)nc2ccc(-c3ccc4c(c3)OCO4)cc12)N1CCC[C@H]1CN1CCCC1
Output: < 1000 nM

* * *

# Assayed System: ZAP-70 (Homo sapiens, UniProt P43403)
# Assay Info: DELFIA assay (ZAP-70 kinase, phosphorylation of biotinylated poly(glu,tyr))
# Assay type: biochemical
# Experimental Context: ZAP-70 DELFIA, numeric value; read-out: Activity (IC50 in vitro)
Measurement Label: IC50 (nM)
Answer with a number only, understood to be in nM.

Input: # get_value(readout='IC50', item= Cc1ccc(-c2ccc3nc(NCc4ccc(C(F)(F)F)cc4)cc(C(=O)N4CCC[C@H]4CN4CCCC4)c3c2)s1 )
Output: 1780

* * *

# Assayed System: ZAP-70 (Homo sapiens)
# Assay Info: DELFIA assay (ZAP-70 kinase, phosphorylation of biotinylated poly(glu,tyr))
# Type: biochemical
# Experimental Context: ZAP-70 DELFIA, class symbols; read-out: Activity (IC50 in vitro)
Entries and their IC50

Guide cases for IC50, answers given:
O=C(NCc1ccc(Cl)cc1)c1cc(C(=O)N2CCC[C@H]2CN2CCCC2)c2cc(-c3ccc4c(c3)OCO4)ccc2n1 [Compound 140] :: < 1 µM
O=C(c1cc(Cc2ccc(N3CCC4(CCNCC4)CC3)cc2)nc2ccc(-c3ccc4c(c3)OCO4)cc12)N1CCCC1CN1CCCC1 (stereo not shown) [Compound 447] :: < 1 µM

Input: # get_value(readout='IC50', item= O=C(c1cc(NCc2ccccc2Cl)nc2ccc(-c3ccc4c(c3)OCO4)cc12)N1CCC[C@H]1CN1CCCC1 [Compound 36] )
Output: < 1 µM

Input: Try this compound too: O=C(c1cc(NCc2cccs2)nc2ccc(-c3ccc4c(c3)OCO4)cc12)N1CCC[C@H]1CN1CCCC1 [Compound 50]
Output: < 1 µM

Input: Try this compound too: O=C(c1cc(NCc2ccc(C(F)(F)F)cc2)nc2ccc(-c3ccc4c(c3)OCO4)cc12)N1CCCC1CCN1CCCC1 (stereo not shown) [Compound 109]
Output: 1 to 10 µM

Input: Try this compound too: N#Cc1ccc(-c2ccc3nc(NCc4cccc(-c5ccccc5)c4)cc(C(=O)N4CCC[C@H]4CN4CCCC4)c3c2)cc1 [Compound 217]
Output: > 10 µM

Input: Try this compound too: Cc1ccc(CCNc2cc(C(=O)N3CCC[C@H]3CN3CCCC3)c3cc(-c4ccc(C#N)cc4)ccc3n2)cc1 [Compound 173]
Output: > 10 µM

Input: Try this compound too: O=C(c1cc(NCc2ccc(Cl)cc2)nc2ccc(-c3ccc4c(c3)OCO4)cc12)N1CC[C@H]1CN1CCCC1 [Compound 374]
Output: 1 to 10 µM

Input: Try this compound too: N#Cc1ccc(-c2ccc3nc(N[C@@H]4c5ccccc5C[C@@H]4O)cc(C(=O)N4CCC[C@H]4CN4CCCC4)c3c2)cc1 [Compound 209]
Output: > 10 µM

Input: Try this compound too: N#Cc1ccc(-c2ccc3nc(NCc4ccccc4OC(F)F)cc(C(=O)N4CCC[C@H]4CN4CCCC4)c3c2)cc1 [Compound 232]
Output: > 10 µM

Input: Try this compound too: COc1ccccc1CCNc1cc(C(=O)N2CCC[C@H]2CN2CCCC2)c2cc(-c3ccc(C#N)cc3)ccc2n1 [Compound 313]
Output: 1 to 10 µM

Input: Try this compound too: CN(Cc1ccccc1)c1cc(C(=O)N2CCC[C@H]2CN2CCCC2)cc(/C=C/c2ccc(C(F)(F)F)cc2)n1 [Compound 278]
Output: > 10 µM

Input: Try this compound too: N#Cc1ccc(-c2ccc3nc(NCc4ccc(Cl)cc4F)cc(C(=O)N4CCC[C@H]4CN4CCCC4)c3c2)cc1 [Compound 180]
Output: > 10 µM

Input: Try this compound too: O=C(c1cc(NCc2ccc(C(F)(F)F)cc2)nc2ccc(-c3ccc4c(c3)OCO4)cc12)N1CCC[C@H]1CNC1CCC1 [Compound 359]
Output: < 1 µM

Input: Try this compound too: O=C(c1cc(CCc2cccc(C(F)(F)F)c2)nc2ccc(-c3ccc4c(c3)OCO4)cc12)N1CCC[C@H]1CN1CCCC1 [Compound 410]
Output: < 1 µM

Input: Try this compound too: O=C(c1cc(NCc2ccc(C(F)(F)F)cc2)nc2ccc(-c3ccc(Cl)c(Cl)c3)cc12)N1CCC[C@H]1CN1CCCC1 [Compound 105]
Output: < 1 µM

Input: Try this compound too: N=C(NC1CCC1)[C@@H]1CCCN1C(=O)c1cc(NCc2ccc(C(F)(F)F)cc2)nc2ccc(-c3ccc4c(c3)OCO4)cc12 [Compound 378]
Output: > 10 µM
